Target: Glutamate receptor ionotropic, AMPA (Rattus norvegicus, UniProt P19490+P19491+P19492+P19493)
pIC50: −log10 of the molar value.
reported.property: pIC50

Observe how each entry below is paired with its result.
> print(dat)
                                smiles.code  numeric.value
1  CCOC(=O)c1cn2c3c(nc(O)c2n1)-c1ccc(NC(=O)NC)cc1C3           8.05
2   Nc1ccc2c(c1)Cc1c-2nc(O)c2nc(C(=O)O)cn12           6.33
3  CNC(=O)Nc1ccc2c(c1)Cc1c-2nc(O)c2nc(C(=O)O)cn12           8.05
4      NC(=O)c1cn2c3c(nc(O)c2n1)-c1ccccc1C3           6.32
5    CCOC(=O)c1cn2c3c(nc(O)c2n1)-c1ccccc1C3           6.68

a = CCOC(=O)c1cn2c3c(nc(O)c2n1)-c1ccc(F)cc1C3
b = O=C(O)c1cn2c3c(nc(O)c2n1)-c1ccccc1C3
Exam item: Min pIC50? a | b Respond with the label that goes with your answer.
Marked response: b

----------
Molecular target: Glutamate NMDA receptor
Assay: Displacement of [3H]DCKA from N-methyl-D-aspartate glutamate receptor of rat cortical membrane
pIC50: −log10 of the molar value.
reported.property: pIC50

> print(dat)
                              smiles.code  reported.property  numeric.value
1  CCOC(=O)c1cn2c3c(nc(O)c2n1)-c1ccccc1C3              pIC50           6.70

P = CNC(=O)Nc1ccc2c(c1)Cc1c-2nc(O)c2nc(C(=O)O)cn12
Q = CCOC(=O)c1cn2c3c(nc(O)c2n1)-c1ccc(NC(=O)NC)cc1C3
R = NC(=O)c1cn2c3c(nc(O)c2n1)-c1ccccc1C3
Exam item: Give the ascending ranking of the items by reported pIC50. Ranked list of labels, please, in the requested order.
Marked response: Q, P, R

----------
Target: Glutamate receptor ionotropic, kainate
Settings: oocyte
Description: Inhibitory activity against generation of currents by 50 uM kainate in Xenopus oocytes injected with rat brain mRNA
pIC50: −log10 of the molar value.
reported.property: pIC50

Example entries begin here.
> print(dat)
                                   compound  numeric.value
1  O=c1[nH]c2cc(-n3ccnc3)c([N+](=O)[O-])cc2[nH]c1=O [YM-90K]           6.59
2    CCOC(=O)c1cn2c3c(nc(O)c2n1)-c1ccccc1C3           6.46

P = O=C(O)c1cn2c3c(nc(O)c2n1)-c1ccc(F)cc1C3
Q = CN1CCCC12c1ccccc1-c1nc(O)c3nccn3c12 (racemic)
R = Oc1nc2c(n3ccnc13)Cc1ccccc1-2
S = Nc1ccc2c(c1)Cc1c-2nc(O)c2nc(C(=O)O)cn12
T = CCOC(=O)c1cn2c3c(nc(O)c2n1)-c1ccc(NC(=O)NC)cc1C3
Exam item: list the entries in increasing order of pIC50. Kindly provide the labels arranged according to the requested ordering.
Marked response: R, Q, S, P, T
(R: 5.74, Q: 6.05, S: 6.63, P: 7.60, T: 8.22)

I = NC(=O)c1cn2c3c(nc(O)c2n1)-c1ccccc1C3
II = O=C(O)c1cn2c3c(nc(O)c2n1)-c1ccccc1C3
III = O=C(O)[C@@H]1C[C@H]2C[C@@H](CCc3nn[nH]n3)CC[C@H]2CN1 [TEZAMPANEL ANHYDROUS]
Exam item: Rank entries according to their pIC50, from the largest number down. Please respond by ranking the labels in the order requested.
Marked response: II, III, I
